# measurement target: UniProt:B5THG7
# Sequence (B5THG7 1-596): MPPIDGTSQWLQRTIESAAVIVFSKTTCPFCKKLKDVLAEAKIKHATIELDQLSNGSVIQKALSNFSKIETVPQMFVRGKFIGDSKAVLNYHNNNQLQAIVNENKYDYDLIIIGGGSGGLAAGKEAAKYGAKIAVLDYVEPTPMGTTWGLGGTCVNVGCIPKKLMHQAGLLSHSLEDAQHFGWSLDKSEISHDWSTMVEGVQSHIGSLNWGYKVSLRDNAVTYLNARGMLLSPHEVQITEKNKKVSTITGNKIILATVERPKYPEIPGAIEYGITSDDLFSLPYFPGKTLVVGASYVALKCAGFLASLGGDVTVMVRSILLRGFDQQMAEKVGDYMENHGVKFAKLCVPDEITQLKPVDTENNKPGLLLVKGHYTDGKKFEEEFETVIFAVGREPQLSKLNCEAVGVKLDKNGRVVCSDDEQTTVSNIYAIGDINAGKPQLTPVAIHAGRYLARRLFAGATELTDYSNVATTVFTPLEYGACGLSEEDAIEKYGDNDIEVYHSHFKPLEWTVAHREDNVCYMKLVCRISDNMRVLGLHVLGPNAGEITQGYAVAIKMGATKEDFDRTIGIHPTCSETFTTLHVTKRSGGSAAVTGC
# assay summary: Inhibition of TrxR activity of rSjTGR-Sec (DTNB reduction, absorbance 412 nm)
# Type: biochemical
# condition context: DTNB, pH 7.0, 25 °C, triplicate, >50 μM = flat response within range tested, read-out: IC50 of rSjTGR-Sec
# Protocol: The rSjTGR-Sec was expressed and harvested as described previously. […] The rSjTGR-Sec was purified by His Mag™ Agarose beads according to manufacturer’s instructions. The concentration of purified rSjTGR-Sec was determined using a Bradford assay kit (Sangon, China), and the protein was identified by sodium dodecyl sulfate polyacrylamide gel electrophoresis (SDS-PAGE) and stored at 4 °C [20]. […]
// reported IC50 for each item listed
assay metric: IC50

1. O=C(OCc1c(-c2cccnc2)no[n+]1[O-])c1ccccc1
> 50 µM
2. [O-][n+]1onc(-c2ccc(C(F)(F)F)nc2)c1CO
0.0558 µM
3. [O-][n+]1onc(-c2ccc(C(F)(F)F)nc2)c1CNc1ccccc1
3.73 µM
4. [O-][n+]1onc(-c2ccncc2)c1CNc1ccccc1
> 50 µM
5. [O-][n+]1onc(-c2cccnc2)c1CNc1ccccc1
> 50 µM
6. COc1ccc(-c2no[n+]([O-])c2COC(C)=O)cn1
> 50 µM
7. CCCC(=O)OCc1c(-c2cccnc2)no[n+]1[O-]
> 50 µM
8. O=C(OCc1c(-c2cccnc2)no[n+]1[O-])c1cc(C(F)(F)F)cc(C(F)(F)F)c1
> 50 µM
9. COc1ccc(-c2no[n+]([O-])c2COC(=O)c2ccccc2)cn1
> 50 µM
10. O=C(CCl)OCc1c(-c2cccnc2)no[n+]1[O-]
14.8 µM
11. C=CC(=O)OCc1c(-c2cccnc2)no[n+]1[O-]
> 50 µM
